- assayProcedure: Cytotoxicity against african green monkey COS1 cells assessed as cell survival at 40 uM relative to control
- Format: cell-based
- measurementContext: chlorocebus aethiops, COS-1 cells; read-out: Survival
Parameter: viability at 40 µM. Scope: all listed entries.
Hey, just the number and the unit after it is fine.

compound	viability at 40 µM
C=C(c1ccc(C(=O)O)cc1)c1cc2c(cc1C)C(C)(C)CCC2(C)C [BEXAROTENE]	74.5%

Attention now shifts to the item below.
GET /values?readout=viability at 40 µM&item= `O=C1c2ccccc2-c2c1c1ccc([N+](=O)[O-])cc1c(=O)n2CCCBr`
100%

---

- assayProcedure: Inhibition of TNFalpha-induced human NFkappaB activity in HEK293 cells incubated for 6 hrs followed by compound wash out measured after 5 mins by luciferase assay
- Assay type: cell-based
pIC50: −log10 of the molar value.
Given measured pIC50, output label 1 if it is greater than or equal to 5 and label 0 if not.

Example entries and their recorded answers appear below.
compound	assignedLabel
CNCCCn1c2c(c3ccc(N)cc3c1=O)C(O)c1ccccc1-2 (centres undefined)	label 1
CNCCCn1c2c(c3ccc([N+](=O)[O-])cc3c1=O)C(=O)c1ccccc1-2	label 1
NCCCn1c2c(c3ccc(N)cc3c1=O)C(=O)c1ccccc1-2	label 0

Can CNc1ccc2c3c(n(CCCNC(=O)OC(C)(C)C)c(=O)c2c1)-c1ccccc1C3O (centres undefined) be said to have pIC50 at or above 5?
label 1

Now consider CNc1ccc2c3c(n(CCCN)c(=O)c2c1)-c1ccccc1C3O (centres undefined) and answer again.
label 1

Also `Cc1ccc(S(=O)(=O)/C=C/C#N)cc1` ?
label 1

`CC(=O)NCCCn1c2c(c3ccc([N+](=O)[O-])cc3c1=O)C(=O)c1ccccc1-2` ?
label 0

What do you get for `Cc1ccc(S(=O)(=O)N[C@@H](Cc2ccccc2)C(=O)CCl)cc1` ?
label 1

Next record, please: Nc1ccc2c3c(n(CCCO)c(=O)c2c1)-c1ccccc1C3O (centres undefined)
label 0

Field entry: `CNCCCn1c2c(c3ccc(N)cc3c1=O)C(=O)c1ccccc1-2`
label 0
